- Tested on: RXRa DBDmut IVT, anti-RXR (DBD mutation: RXRa K156A/R161A, NR concentration 90 nM)
- Protocol text: PBM binding z-score (relative to random genomic background probes); higher = stronger binding; sequences stand for … in GC…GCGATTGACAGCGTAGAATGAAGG
Assign class by PBM binding z-score: not lower than 1 means Criterion met; lower than 1 means Criterion not met.

{"columns": ["Biosequence", "Category label"],
 "data": [
  ["TCTTGTAGATCATCAGGAGGTTAAGAAAGATCGA", "Criterion not met"],
  ["CCTACTGTGCCAAAGGTCATTGATTCCAATGCTC", "Criterion met"],
  ["AGAATGAGGGCAATGAGTTGATAGCACGGGTGGC", "Criterion met"],
  ["CTTACTGGGCCATTCAGAGGTCATTGATCATATG", "Criterion met"],
  ["GCGACTGGGGCCTCAGCAGGTTACCATAACTTAA", "Criterion not met"],
  ["CCGACTGGGGCAAAGGGTACCATACTCAGTACGA", "Criterion not met"],
  ["CAGCCTAGGTCTGGGCCAGTATAGGAGGAACGTT", "Criterion not met"],
  ["ATCGAAACGTCGAAGGTGAGTATACCCACCCGAA", "Criterion not met"],
  ["GGAACGAGGGCAAAGTTGATAGCATCTGTCGACG", "Criterion met"],
  ["TCTATTAGTTAAAGGGCAACCGACGAGTCCGTTT", "Criterion met"],
  ["CGGACTAGGTCAAGGACAGTGAATCTCCGCACGC", "Criterion met"],
  ["CAAACTAGGTCAAGGTCGAAGTCGGTTTGTGCCA", "Criterion met"],
  ["ATCGATAGGTCGAAGGTGAGTATACCCACCCGAA", "Criterion not met"],
  ["AATACAGGGTCATCGCAGGCCAGAGTACGCACAG", "Criterion met"],
  ["TCGAGTAGGTTTCCAATGGGGCATTCAGCTTTCT", "Criterion not met"],
  ["GGAACGAGGGCAATTTGATAGCAGAGTTTGATGG", "Criterion met"],
  ["CAAACTAGGTCATGGTCAAAGTCGGTTTGTGCCA", "Criterion met"],
  ["AGTCAAAGTTCAGGACGAGGTAACTTAAAGCACG", "Criterion met"],
  ["ACAGACAGGTGAGTGAAGGTAACTCCGCTGGACG", "Criterion not met"],
  ["CGTCCAAGGTCAGAGAGGTCAGTTAATGCCGAGT", "Criterion met"],
  ["CGTCAAAGTTCGAGGTAACGTAACAGAAAGCAGC", "Criterion met"],
  ["AGAATGAGGTTCCCAAAGATCAGGGAAACGCTTG", "Criterion not met"],
  ["CGACAAAGTTCAACTAAGGTAACGTAAAGCACGC", "Criterion met"],
  ["GTCCCAAGGTGAATAGGTCGTTGATGAGTAGGCG", "Criterion not met"],
  ["TCCAGTAGGTTAGTCGGGGCATTCAGCCAACATA", "Criterion met"],
  ["ACTAGCAGGCCAAGGGTCCCTCAAGATTAGTCCG", "Criterion not met"],
  ["CGAAGTAGGTCATTGACAGGACAGTGAATAGTAA", "Criterion met"],
  ["TCATATAGGTAATACAGGGGAAAGTCGGCATCTA", "Criterion met"],
  ["ATATGTAGGTTATCGGGTCATTCCGTTTGCGCAT", "Criterion met"],
  ["ATCCAAAGGTCGACGAGGTGAGTATACACCGTTT", "Criterion met"],
  ["ATACGAAGGTGATCGTGAGGTCGTTGATACTAAC", "Criterion not met"],
  ["CCTATTGGGCCAAAAAGGTCATTGATGCCGATAA", "Criterion not met"],
  ["GGCACGAGGGCATTCGAGTTGATAGCATGGCGAT", "Criterion met"],
  ["TAGCCTAGGTCATTGGGCCACTATAGTACGCATC", "Criterion met"],
  ["CCTAGTTGGTAAGGAGGTCACACACCGGATATGA", "Criterion not met"],
  ["CCACACAGGTGAGAAGGTAACTCAGCCTCGATTA", "Criterion not met"],
  ["CCTATTAGTTGACCCTAAGGGCAACCGAAGCTCG", "Criterion not met"],
  ["CCTGCTAGGTCATGGTCAGCTACTCTACAGTATG", "Criterion met"],
  ["TCGAGTAGGTTAGACGGGGCATTCAGCCAACATA", "Criterion not met"],
  ["GCTAGTTGGTCAGTAAAAGGTCACACATCGGTCG", "Criterion not met"],
  ["CCTCGGAGGACGGAAGGTCAGAGCTGTCCGCTTT", "Criterion not met"],
  ["AGAATGAGGTAAAGATCAGGGAAACAGAATACAT", "Criterion not met"],
  ["ACTAGTTGGTCAGCTGAGGTCAGACACAATTCGG", "Criterion not met"],
  ["GCATACAGGTGAAACGCAGGTAACTCAGGGTGGC", "Criterion not met"],
  ["TATACAGGGTCAAACGCCAGAGTACGAATGTCGA", "Criterion met"],
  ["TCTTGTAGATAAATAGAGGTTAAGAAAGTGCGCT", "Criterion met"],
  ["GCGACTGGGGCAAAGCAGGTTACCGTAAGGTTGG", "Criterion not met"],
  ["CCTAGCAGGCCAGGGTCCCTCAAGCATTTCGCTT", "Criterion not met"],
  ["TCATGTAGGTAAATGCTAGGTGAAAGTCCGATCT", "Criterion met"],
  ["TCATATCGGTAAAGGTGAAAGTCGAACGATATGA", "Criterion not met"]
]}

----------
- System: PPARg DBDmut IVT, anti-PPARg (DBD mutation: PPARg1 K132A/R137A, NR concentration 270 nM)
- Protocol text: PBM binding z-score (relative to random genomic background probes); higher = stronger binding; sequences stand for … in GC…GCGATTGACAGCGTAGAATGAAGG
Returns the class for an entry based on its PBM binding z-score. Class ranges: lower level: < -0.4; middle level: ≥ -0.4 and < 0.3; upper level: ≥ 0.3

{"columns": ["Biosequence", "Category label"],
 "data": [
  ["ATCTCTAGGTAACCAAGTTCAGTGAATGCCGAAC", "upper level"],
  ["CCTTACGGGTCACTGACAGGCTATAGCATTTGGA", "middle level"],
  ["ATCTAAAGGTCGTGAGGTGAGTATACAGAAAGGC", "upper level"],
  ["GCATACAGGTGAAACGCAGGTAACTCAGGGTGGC", "middle level"],
  ["CCTACTGGGCCAAAAAAGTCATTGATGCCGATAA", "middle level"],
  ["TCGACTAGGTTAGGGGCATTCAGAATGGCGTCGA", "middle level"],
  ["CCTGCTAGGTCATGGTGAGCTAATCTACAGTATG", "upper level"],
  ["CCTAGCAGGCCAGGGTCACTCACGCATTTCGCTT", "lower level"],
  ["CGTCCAAGGTCTGCAGGTCAGTGAAAGCGACGTG", "lower level"],
  ["TCTATTACTTGAAGGGCAACCGACGAGTCCGTTT", "upper level"],
  ["CAGCCTAGGTCAGGGCGAGTATAGGAGGAACGTT", "lower level"]
]}

----------
- Test system: VDR:RXRa (NR concentration 270 nM, RXRa partner concentration 90 nM)
- Protocol text: PBM binding z-score (relative to random genomic background probes); higher = stronger binding; sequences stand for … in GC…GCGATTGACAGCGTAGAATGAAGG
Reported property: PBM binding z-score

{"columns": ["Biosequence", "Reported result"],
 "data": [
  ["CGAACTAGGTCATTGACAGGATAGTGAATAGTAA", 1.64],
  ["AGTCAAAGTTCACTAGGTAACATAAGATTCAGCT", 4.14],
  ["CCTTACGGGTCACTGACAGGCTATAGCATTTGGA", 3.07],
  ["CCTAGCAGGCCAATCTGGGTCGCTCAAGGCTTGA", 0.301],
  ["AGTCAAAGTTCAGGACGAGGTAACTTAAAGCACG", 3.1],
  ["CGTCCAAGGTCAAAGGTCAGTGACGAGATGACGG", 6.67],
  ["CAAACTAGGTCACGACAGGTCAAAGTCGAATGAC", 6.07],
  ["TCTGCTAGGTCAACGGTGGTCAGCTAATCTGCTA", 1.95],
  ["TAGCCTAGGTCAGAACGGGCCAGTATACGCTATA", 0.299],
  ["AGTCAAAGTTCAGGACGAGGTAACGTACAGCACG", 2.88],
  ["AATACAGGCTCACTAGGCCAGAGTAGGTACGAAT", -0.46],
  ["CCGACTGGGGCAAAGGATACCATACTCAGTACGA", -0.368]
]}
